From: ChEMBL document CHEMBL1135773

Recorded pEC50 for the following compounds
Target: UniProtKB P49653
Sequence (P49653 whole entry): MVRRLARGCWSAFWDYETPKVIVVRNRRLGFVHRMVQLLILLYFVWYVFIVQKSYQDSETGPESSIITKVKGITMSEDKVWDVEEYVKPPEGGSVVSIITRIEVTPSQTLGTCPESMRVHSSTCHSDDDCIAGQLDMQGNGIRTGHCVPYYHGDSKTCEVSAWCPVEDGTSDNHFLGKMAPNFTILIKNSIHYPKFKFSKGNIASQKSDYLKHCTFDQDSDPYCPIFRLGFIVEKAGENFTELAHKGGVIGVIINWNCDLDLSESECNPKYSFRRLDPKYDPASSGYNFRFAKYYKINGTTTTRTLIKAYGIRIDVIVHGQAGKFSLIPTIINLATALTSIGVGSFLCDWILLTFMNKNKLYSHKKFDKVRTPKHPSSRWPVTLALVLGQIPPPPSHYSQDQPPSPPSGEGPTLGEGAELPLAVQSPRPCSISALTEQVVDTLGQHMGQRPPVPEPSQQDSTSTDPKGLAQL
Experiment: Antagonist activity against recombinant rat receptor P2X purinoceptor 2 (P2X2) at 10 uM, expressed in Xenopus oocytes
Format: functional, cell-based, Oocyte
Worth noting: pEC50 values are minus log10 of concentrations stated in mol/L.

Nc1ncnc2c1ncn2[C@@H]1O[C@H](CO[P@](=O)(O)O[P@](=O)(O)O[P@@](=O)(O)S)[C@@H](O)[C@H]1O = 5.82

Record request: pEC50 value, item "Nc1ncnc2c1ncn2[C@@H]1O[C@H](COP(=O)(O)CP(=O)(O)OP(=O)(O)O)[C@@H](O)[C@H]1O" 4.00

Record request: pEC50 value, item "CSc1nc(N)c2ncn([C@@H]3O[C@H](COP(=O)(O)OP(=O)(O)OP(=O)(O)O)[C@@H](O)[C@H]3O)c2n1" 5.82

----------
Biological target: UniProt Q99572
Sequence (Q99572 whole entry): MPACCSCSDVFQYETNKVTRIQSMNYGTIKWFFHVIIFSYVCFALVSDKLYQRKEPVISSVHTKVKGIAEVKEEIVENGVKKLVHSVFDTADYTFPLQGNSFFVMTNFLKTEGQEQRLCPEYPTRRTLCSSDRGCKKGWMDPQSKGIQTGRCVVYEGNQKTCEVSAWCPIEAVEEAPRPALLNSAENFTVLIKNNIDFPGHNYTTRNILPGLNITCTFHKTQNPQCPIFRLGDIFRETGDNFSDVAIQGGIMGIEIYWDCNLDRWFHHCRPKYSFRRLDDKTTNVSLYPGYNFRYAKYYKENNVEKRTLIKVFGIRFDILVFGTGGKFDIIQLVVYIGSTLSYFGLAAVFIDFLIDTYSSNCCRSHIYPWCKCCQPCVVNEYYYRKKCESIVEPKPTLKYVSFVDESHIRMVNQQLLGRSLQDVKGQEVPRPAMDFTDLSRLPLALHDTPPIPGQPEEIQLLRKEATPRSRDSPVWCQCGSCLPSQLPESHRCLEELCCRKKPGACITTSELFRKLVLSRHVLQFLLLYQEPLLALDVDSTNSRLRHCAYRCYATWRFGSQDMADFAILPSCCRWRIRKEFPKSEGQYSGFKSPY
Assay: Antagonist activity against recombinant human P2X purinoceptor 7 (P2X7)
Recorded EC50 for the following compounds
Form entry: value (µM) — number only.

Nc1ncnc2c1ncn2[C@@H]1O[C@H](COP(=O)(O)OP(=O)(O)OP(=O)(O)O)[C@@H](O)[C@H]1O [ADENOSINE TRIPHOSPHATE] = 780

Continue with the next compound.
Record request: EC50 value, item "CN([C@@H](Cc1ccc(OS(=O)(=O)c2cccc3cnccc23)cc1)C(=O)N1CCN(c2ccccc2)CC1)S(=O)(=O)c1cccc2cnccc12" 0.034

----------
biological target: UniProtKB P41231; experiment: Evaluated for agonist activity against phospholipase C coupled recombinant human P2Y purinoceptor 2 (P2Y2); format: functional
Sequence (P41231 whole entry): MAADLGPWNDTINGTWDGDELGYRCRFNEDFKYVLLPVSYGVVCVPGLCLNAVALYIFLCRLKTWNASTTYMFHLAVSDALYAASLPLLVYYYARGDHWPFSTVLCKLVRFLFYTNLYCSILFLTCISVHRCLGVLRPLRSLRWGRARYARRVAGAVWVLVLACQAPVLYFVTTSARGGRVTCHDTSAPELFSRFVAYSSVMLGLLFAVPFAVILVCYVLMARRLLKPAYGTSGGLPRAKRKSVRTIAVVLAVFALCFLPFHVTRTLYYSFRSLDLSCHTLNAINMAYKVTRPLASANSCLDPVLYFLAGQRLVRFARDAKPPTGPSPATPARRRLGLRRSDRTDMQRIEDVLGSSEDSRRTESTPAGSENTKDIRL
measurement-name: EC50 (µM)
Form entry: value (µM) — number only.

Cc1ccc(C(=O)Nc2ccc(S(=O)(=O)O)c3cc(S(=O)(=O)O)cc(S(=O)(=O)O)c23)cc1NC(=O)c1cccc(NC(=O)Nc2cccc(C(=O)Nc3cc(C(=O)Nc4ccc(S(=O)(=O)O)c5cc(S(=O)(=O)O)cc(S(=O)(=O)O)c45)ccc3C)c2)c1 = 48

Record request: EC50 value, item Nc1ncnc2c1ncn2[C@@H]1O[C@H](COP(=O)(O)OP(=O)(O)OP(=O)(O)O)[C@@H](O)[C@H]1O [ADENOSINE TRIPHOSPHATE] 0.23

Record request: EC50 value, item Nc1ncnc2c1ncn2[C@@H]1O[C@H](COP(=O)(O)OP(=O)(O)OP(=O)(O)OP(=O)(O)OC[C@H]2O[C@@H](n3cnc4c(N)ncnc43)[C@H](O)[C@@H]2O)[C@@H](O)[C@H]1O [DIADENOSINE TETRAPHOSPHATE] 0.72

Record request: EC50 value, item "Nc1ncnc2c1ncn2[C@@H]1O[C@H](CO[P@](=O)(O)O[P@](=O)(O)O[P@@](=O)(O)S)[C@@H](O)[C@H]1O" 1.72

Record request: EC50 value, item O=c1ccn([C@@H]2O[C@H](COP(=O)(O)OP(=O)(O)OP(=O)(O)O)[C@@H](O)[C@H]2O)c(=O)[nH]1 [URIDINE TRIPHOSPHATE] 0.14

----------
target: UniProtKB P51582; assay: The compound was evaluated for antagonist activity against phospholipase C coupled recombinant human P2Y purinoceptor 4 (P2Y4)
Sequence (P51582 whole entry): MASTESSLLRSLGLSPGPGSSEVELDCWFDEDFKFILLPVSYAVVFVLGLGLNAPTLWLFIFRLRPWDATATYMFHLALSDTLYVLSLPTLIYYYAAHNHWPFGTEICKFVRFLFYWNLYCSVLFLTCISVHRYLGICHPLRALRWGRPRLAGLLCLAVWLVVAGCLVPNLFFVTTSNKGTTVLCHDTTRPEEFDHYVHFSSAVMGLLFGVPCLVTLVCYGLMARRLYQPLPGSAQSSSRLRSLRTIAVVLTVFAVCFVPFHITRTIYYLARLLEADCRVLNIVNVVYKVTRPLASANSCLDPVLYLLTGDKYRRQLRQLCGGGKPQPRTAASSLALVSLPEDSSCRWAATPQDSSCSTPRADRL
pEC50: −log10 of the molar value.
measurement-name: pEC50

// below: answered compounds
CNc1ncnc2c1ncn2[C@H]1C[C@H](OP(=O)(O)O)[C@@H](COP(=O)(O)O)O1 = < 4.00
Cc1ccc(C(=O)Nc2ccc(S(=O)(=O)O)c3cc(S(=O)(=O)O)cc(S(=O)(=O)O)c23)cc1NC(=O)c1cccc(NC(=O)Nc2cccc(C(=O)Nc3cc(C(=O)Nc4ccc(S(=O)(=O)O)c5cc(S(=O)(=O)O)cc(S(=O)(=O)O)c45)ccc3C)c2)c1 = < 4.00
Nc1ncnc2c1ncn2[C@@H]1O[C@H](COP(=O)(O)OP(=O)(O)OP(=O)(O)O)[C@@H](O)[C@H]1O [ADENOSINE TRIPHOSPHATE] = 4.37
Cc1nc(/N=N/c2ccc(S(=O)(=O)O)cc2S(=O)(=O)O)c(COP(=O)(O)O)c(C=O)c1O = < 5.00

Continue with the next compound.
Record request: pEC50 value, item "CNc1nc(Cl)nc2c1ncn2[C@H]1C[C@@H](OP(=O)(O)O)[C@]2(COP(=O)(O)O)C[C@H]12" < 4.00

----------
molecular target: P2Y purinoceptor 1 (Meleagris gallopavo); assay: The compound was evaluated for antagonist activity against phospholipase C coupled P2Y purinoceptor 1 (P2Y1) of turkey erythrocytes
measurement-name: pEC50
Worth noting: pEC50 values are minus log10 of concentrations stated in mol/L.

Record request: pEC50 value, item "CNc1nc(Cl)nc2c1ncn2CCC(COP(=O)(O)O)COP(=O)(O)O" 6.08

----------
target: P2X purinoceptor 1 (Rattus norvegicus, UniProt P47824); assay: Dissociation constant of the compound at P2X purinoceptor 1 (P2X1) from rat vas deferens was reported
Sequence (P47824 whole entry, looked up): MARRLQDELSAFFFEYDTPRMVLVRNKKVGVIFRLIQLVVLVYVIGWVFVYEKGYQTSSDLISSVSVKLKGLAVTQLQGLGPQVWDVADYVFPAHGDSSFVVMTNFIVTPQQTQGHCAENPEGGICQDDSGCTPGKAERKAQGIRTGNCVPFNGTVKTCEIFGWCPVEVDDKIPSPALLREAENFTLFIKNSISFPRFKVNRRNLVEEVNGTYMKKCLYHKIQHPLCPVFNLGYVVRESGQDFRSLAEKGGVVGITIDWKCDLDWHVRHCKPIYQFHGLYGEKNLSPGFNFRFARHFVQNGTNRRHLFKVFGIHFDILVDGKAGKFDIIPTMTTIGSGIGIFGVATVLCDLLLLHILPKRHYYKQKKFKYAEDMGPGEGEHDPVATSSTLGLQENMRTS
measurement-name: Kd (nM)
Form entry: value (nM) — number only.

Form entry - test system: P2X purinoceptor 1 (Rattus norvegicus, UniProt P47824); read-out: Kd; molecule: "Cc1nc(/N=N/c2ccc(C(=O)O)c(Cl)c2)c(COP(=O)(O)O)c(C=O)c1O" 1600

----------
Target: P2X purinoceptor 4 (Rattus norvegicus)
Sequence (P51577 whole entry): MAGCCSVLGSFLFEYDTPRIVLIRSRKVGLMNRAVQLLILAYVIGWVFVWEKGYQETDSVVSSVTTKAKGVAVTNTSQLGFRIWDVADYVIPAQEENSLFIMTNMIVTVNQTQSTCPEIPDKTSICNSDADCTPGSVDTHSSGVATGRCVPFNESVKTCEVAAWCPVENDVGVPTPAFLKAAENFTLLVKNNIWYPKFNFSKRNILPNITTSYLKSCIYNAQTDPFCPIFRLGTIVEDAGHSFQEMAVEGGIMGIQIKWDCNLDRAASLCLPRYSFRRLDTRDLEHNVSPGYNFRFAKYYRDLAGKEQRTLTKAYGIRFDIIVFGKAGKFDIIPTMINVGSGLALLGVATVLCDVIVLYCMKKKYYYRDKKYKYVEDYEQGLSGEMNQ
Test: The compound was evaluated for antagonist activity against recombinant rat P2X purinoceptor 4 (P2X4) 3 uM
pIC50: −log10 of the molar value.
measurement-name: pIC50

Record request: pIC50 value, item "Cc1ncc2c(c1O)COP(=O)(O)OC2" < 4.00

----------
biological target: P2Y purinoceptor 4 (Rattus norvegicus); assay: The compound was evaluated for agonist activity against phospholipase C coupled recombinant rat P2Y purinoceptor 4 (P2Y4); assay type: functional
Sequence (O35811 whole entry): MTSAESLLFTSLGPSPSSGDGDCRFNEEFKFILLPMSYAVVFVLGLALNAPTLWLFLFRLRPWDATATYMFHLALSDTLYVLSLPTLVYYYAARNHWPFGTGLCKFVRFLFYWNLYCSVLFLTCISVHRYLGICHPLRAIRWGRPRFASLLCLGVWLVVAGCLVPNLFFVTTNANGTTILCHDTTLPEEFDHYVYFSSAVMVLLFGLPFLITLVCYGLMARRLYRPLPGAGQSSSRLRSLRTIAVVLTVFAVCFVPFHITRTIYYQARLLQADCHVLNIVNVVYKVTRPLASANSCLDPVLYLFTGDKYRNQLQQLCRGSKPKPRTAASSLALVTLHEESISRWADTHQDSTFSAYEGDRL
measurement-name: EC50 (nM)
Form entry: value (nM) — number only.

Record request: EC50 value, item Nc1ncnc2c1ncn2[C@@H]1O[C@H](COP(=O)(O)OP(=O)(O)OP(=O)(O)O)[C@@H](O)[C@H]1O [ADENOSINE TRIPHOSPHATE] 1800
